# Test system: mushroom tyrosinase
# assay overview: Tyrosinase inhibitory assay
# Type: biochemical
# test context: 50 μM compound, L-DOPA substrate
endpoint label: % inhibition at 50 μM (%)

>>> df
                                   molecule  numeric_value
0  O=c1cc(CO)oc(C(Nc2ccccn2)c2cccc(Cl)c2)c1O (stereo not drawn) [Compound 4e]          50.57
1  Cc1ccc(C(Nc2ccccn2)c2oc(CO)cc(=O)c2O)cc1 (stereo not drawn) [Compound 4k]          22.28
2  COc1cccc(C(Nc2ccccn2)c2oc(CO)cc(=O)c2O)c1O (stereo not drawn) [Compound 4l]          52.07
3  O=c1cc(CO)oc(C(Nc2ccccn2)c2cccc([N+](=O)[O-])c2)c1O (stereo not drawn) [Compound 4h]          74.85
4  O=c1cc(CO)oc(C(Nc2ccccn2)c2ccc(COc3ccccc3)cc2)c1O (stereo not drawn) [Compound 4m]          35.42
5  O=c1cc(CO)oc(C(Nc2ccccn2)c2cccc(Br)c2)c1O (stereo not drawn) [Compound 4g]          33.71
6  COc1ccc(C(Nc2ccccn2)c2oc(CO)cc(=O)c2O)cc1[N+](=O)[O-] (stereo not drawn) [Compound 4i]          56.57

1. O=c1cc(CO)oc(C(Nc2ccccn2)c2cccc(F)c2)c1O (stereo not drawn) [Compound 4c]
2. O=c1cc(CO)oc(C(Nc2ccccn2)c2ccccc2F)c1O (stereo not drawn) [Compound 4b]
Identify the item whose % inhibition at 50 μM is the smaller number: 1 or 2 Please reply using the label of the selected record. 1
(1: 28.47%, 2: 59.42%)

Provenance of the data: paper PMC10682633
